These measurements were taken from patent US20200157236A1.

Record form. Attribute: pKd. Fill in for each entry.
target or system: rat ALK, purified (rALK) (rat, UniProt P97793 19-1038 (mouse entry), limits assumed)
Sequence (P97793 other isoform, or with tags, fused parts or gaps limits assumed): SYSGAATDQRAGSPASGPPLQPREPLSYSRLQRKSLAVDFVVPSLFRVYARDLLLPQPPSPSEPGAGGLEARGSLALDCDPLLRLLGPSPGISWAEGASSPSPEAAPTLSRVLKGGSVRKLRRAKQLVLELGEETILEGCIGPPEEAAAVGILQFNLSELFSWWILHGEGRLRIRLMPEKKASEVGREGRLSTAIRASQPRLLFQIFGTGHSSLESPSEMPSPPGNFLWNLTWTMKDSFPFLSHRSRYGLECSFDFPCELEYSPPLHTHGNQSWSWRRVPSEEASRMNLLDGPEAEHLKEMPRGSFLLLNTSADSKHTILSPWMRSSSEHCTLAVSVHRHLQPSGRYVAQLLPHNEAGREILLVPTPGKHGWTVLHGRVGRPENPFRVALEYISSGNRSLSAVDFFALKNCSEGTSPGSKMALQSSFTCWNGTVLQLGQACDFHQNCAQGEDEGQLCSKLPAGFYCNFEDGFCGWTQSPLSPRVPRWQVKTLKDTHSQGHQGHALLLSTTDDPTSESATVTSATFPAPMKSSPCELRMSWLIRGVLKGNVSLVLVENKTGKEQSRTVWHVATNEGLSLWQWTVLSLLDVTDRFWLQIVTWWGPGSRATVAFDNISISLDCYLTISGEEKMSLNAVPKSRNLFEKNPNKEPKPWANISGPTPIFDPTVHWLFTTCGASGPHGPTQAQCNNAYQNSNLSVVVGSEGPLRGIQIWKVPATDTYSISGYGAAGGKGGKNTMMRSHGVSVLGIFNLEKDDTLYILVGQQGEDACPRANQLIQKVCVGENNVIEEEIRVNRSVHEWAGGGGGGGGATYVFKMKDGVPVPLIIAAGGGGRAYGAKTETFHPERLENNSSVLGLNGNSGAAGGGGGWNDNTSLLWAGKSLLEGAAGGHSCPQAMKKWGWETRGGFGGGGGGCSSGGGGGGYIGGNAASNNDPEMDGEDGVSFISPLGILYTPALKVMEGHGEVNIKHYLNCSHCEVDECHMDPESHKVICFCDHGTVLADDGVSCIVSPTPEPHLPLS
procedure summary: BLI (BLitz), estimated monovalent affinity, single dose kinetics
Bear in mind: pKd is minus log10 of a mol/L concentration; give just that figure.

Input Ab352 (antibody, V domains shown, humanized) VH: EVQLVQSGPEVKKPGTSVKLSCKASGYTFTSYWMHWVRQARGQRLEWIGYIKPSSGYTKYNQKFKDRATLTADKSTSTAYMELSSLRSEDTAVYYCARDYYGSSSWFAYWGQGTLVTVSS VL: EIVMTQSPAFLSVTPGEKVTITCKASQNVGTNVAWYQQKPDQAPKALIYSASYRYSGVPSRFSGSGSGTDFTLTISSLEAEDAATYYCQQYNSYPYMYTFGQGTKLEIK . Output pKd: 7.62

Input Ab326 (antibody, V domains shown, rodent hybridoma mAb) VH: QVQLQQSGAELAKPGASVKLSCKASGYTFTSYWMHWVKQRPGQGLEWIGYIKPSSGYTKYNQKFKDKATLTADKSSSTAYMQLSSLTYEDSAVYYCARDYYGSSSWFAYWGQGTLVTVSA VL: DIVMTQSQRFMSTSVGDRVSVTCKASQNVGTNVAWYQQKPGQSPKALIYSASYRYSGVPDRFTGSGSGTDFTLTISNVQSEDLAEYFCQQYNSYPYMYTFGGGTKLEIKR . Output pKd: 7.46

Input Ab400 (antibody, V domains shown, humanized) VH: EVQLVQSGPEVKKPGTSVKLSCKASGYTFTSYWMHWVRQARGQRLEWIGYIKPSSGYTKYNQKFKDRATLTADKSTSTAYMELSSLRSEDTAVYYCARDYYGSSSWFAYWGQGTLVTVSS VL: EIVMTQSQATMSTSVGERATLSCKASQNVGTNVAWYQQKPGQSPKALIYSASYRYSGVPARFSGSGSGTDFTLTISSVEPEDFAVYYCQQYNSYPYMYTFGQGTKLEIK . Output pKd: 7.74
